Molecular target: GST-Nv-NF-kB (Ser allele) (Nematostella vectensis, UniProt A7UNT2 2-411)
Sequence: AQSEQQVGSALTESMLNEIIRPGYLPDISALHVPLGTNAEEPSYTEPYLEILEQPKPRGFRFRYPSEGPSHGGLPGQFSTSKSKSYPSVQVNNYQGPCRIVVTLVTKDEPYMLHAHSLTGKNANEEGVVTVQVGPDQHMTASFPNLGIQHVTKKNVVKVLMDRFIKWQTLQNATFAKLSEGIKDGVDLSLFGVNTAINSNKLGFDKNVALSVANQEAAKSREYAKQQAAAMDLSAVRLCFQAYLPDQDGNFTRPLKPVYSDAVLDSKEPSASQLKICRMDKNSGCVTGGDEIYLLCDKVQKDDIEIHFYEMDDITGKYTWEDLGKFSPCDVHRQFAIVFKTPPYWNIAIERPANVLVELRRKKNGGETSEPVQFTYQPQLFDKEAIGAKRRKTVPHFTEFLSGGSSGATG
Experiment: protein-binding microarray (PBM); PBM: ~300 nM protein, 6 mM HEPES pH 7.8, 80 mM KCl, 0.5 mM EDTA, 0.5 mM EGTA, 6% glycerol, 35 ng/ul poly-dIdC, 1% milk, 1 h, room temperature; Ap Aiptasia and Nv Nematostella (sea anemones) / Co Capsaspora / Aq Amphimedon (sponge) / Dm Drosophila / Hu human; RHD is the Rel homology domain; high values mean tight binding
Conditions: dsDNA, one strand shown
Exercise: state measured binding signal for each of the sequences provided.
Express your answer in z-score, writing the number without its unit.

Exercise: Reported binding signal, sequence `CCGATTAACATCAGGGGATTTAATGATGTTAATCGGGTCTTGATTCGCTTGACGCTGCTG` : ____
Key: 9.99

Exercise: Reported binding signal, sequence `CCGATTAACATCACCCGGGTAAATGATGTTAATCGGGTCTTGATTCGCTTGACGCTGCTG` : ____
Key: 1.15

Exercise: Reported binding signal, sequence `CCGATTAACATCAGGACCTCCCCTGATGTTAATCGGGTCTTGATTCGCTTGACGCTGCTG` : ____
Key: 2.85

Exercise: Reported binding signal, sequence `CCGATTAACATCAAACATTCCCTTGATGTTAATCGGGTCTTGATTCGCTTGACGCTGCTG` : ____
Key: 4.25

Exercise: Reported binding signal, sequence `CCGATTAACATCAAACTTTCCCCTGATGTTAATCGGGTCTTGATTCGCTTGACGCTGCTG` : ____
Key: 9.66

Exercise: Reported binding signal, sequence `CCGATTAACATCACGGGGGGTACTGATGTTAATCGGGTCTTGATTCGCTTGACGCTGCTG` : ____
Key: 3.15

Exercise: Reported binding signal, sequence `CCGATTAACATCAAAAAATCCCCTGATGTTAATCGGGTCTTGATTCGCTTGACGCTGCTG` : ____
Key: 13.6

Exercise: Reported binding signal, sequence `CCGATTAACATCACAAAATTCCCTGATGTTAATCGGGTCTTGATTCGCTTGACGCTGCTG` : ____
Key: 8.58

Exercise: Reported binding signal, sequence `CCGATTAACATCAACGTGGGAAATGATGTTAATCGGGTCTTGATTCGCTTGACGCTGCTG` : ____
Key: 1.77

Exercise: Reported binding signal, sequence `CCGATTAACATCAGGGGGGTTTATGATGTTAATCGGGTCTTGATTCGCTTGACGCTGCTG` : ____
Key: 6.69

Exercise: Reported binding signal, sequence `CCGATTAACATCAGAAACACCCCTGATGTTAATCGGGTCTTGATTCGCTTGACGCTGCTG` : ____
Key: 2.16

Exercise: Reported binding signal, sequence `CCGATTAACATCAAAGAATTCCCTGATGTTAATCGGGTCTTGATTCGCTTGACGCTGCTG` : ____
Key: 7.47

Exercise: Reported binding signal, sequence `CCGATTAACATCATATTCCCCCATGATGTTAATCGGGTCTTGATTCGCTTGACGCTGCTG` : ____
Key: 7.13

Exercise: Reported binding signal, sequence `CCGATTAACATCAGAGATTCCCCTGATGTTAATCGGGTCTTGATTCGCTTGACGCTGCTG` : ____
Key: 10.1

Exercise: Reported binding signal, sequence `CCGATTAACATCAGGGGATACCCTGATGTTAATCGGGTCTTGATTCGCTTGACGCTGCTG` : ____
Key: 6.59

Exercise: Reported binding signal, sequence `CCGATTAACATCAGGAAACCCCATGATGTTAATCGGGTCTTGATTCGCTTGACGCTGCTG` : ____
Key: 2.64

Exercise: Reported binding signal, sequence `CCGATTAACATCAGCTATTTCCCTGATGTTAATCGGGTCTTGATTCGCTTGACGCTGCTG` : ____
Key: 3.4

Exercise: Reported binding signal, sequence `CCGATTAACATCAAGGGGGAATCTGATGTTAATCGGGTCTTGATTCGCTTGACGCTGCTG` : ____
Key: 9.87
